Tested on: MDA-MB-231
Test: Antiproliferative activity against human MDA-MB-231 cells assessed as reduction in cell viability by SRB assay
Assay type: functional, cell-based
measured_attribute: IC50

Study these solved cases before continuing.
compound=CC(=O)O[C@H]1C(=O)[C@@]2(C)[C@H]([C@H](OC(=O)c3ccccc3)[C@]3(O)C[C@H](OC(=O)[C@H](O)[C@@H](NC(=O)c4ccccc4)c4ccccc4)C(C)=C1C3(C)C)[C@]1(OC(C)=O)CO[C@@H]1C[C@@H]2O measured_attribute=IC50 measured_result="0.0084 µM"
compound="C[C@H](C[C@@H](O)[C@@H]1OC1(C)C)[C@H]1CC[C@@]2(C)[C@@H]3CC[C@H]4C(C)(C)C(=O)CC[C@@]45C[C@@]35CC[C@]12C (relative stereo)" measured_attribute=IC50 measured_result="> 10 µM"
compound="C[C@@H](C[C@@H](O)[C@@H]1OC1(C)C)[C@@H]1CC[C@]2(C)C3=CC[C@H]4C(C)(C)[C@@H](O)CC[C@]4(C)[C@H]3CC[C@@]12C [DIHYDRONILOTICIN]" measured_attribute=IC50 measured_result="4.7 µM"
compound=C[C@H](C/C=C/C(C)(C)O)[C@H]1CC[C@@]2(C)[C@@H]3CC[C@H]4C(C)(C)[C@H](O)CC[C@@]45C[C@@]35CC[C@]12C measured_attribute=IC50 measured_result="9.3 µM"

Give one value of IC50 per listed compound.
1. CC(C)=CC(O)C[C@H](C)[C@@H]1CC[C@]2(C)C3=CCC4C(C)(C)[C@@H](O)CC[C@]4(C)[C@H]3CC[C@@]12C (some centres not stated)
2. CC1(C)C(=O)CC[C@@]2(C)C1CC=C1[C@@H]2CC[C@@]2(C)[C@H](C3CO[C@@H](C(C)(C)O)[C@H](O)C3)CC[C@]12C (some centres not stated)
3. CC1(C)OCC([C@@H]2CC[C@]3(C)C4=CC[C@H]5C(C)(C)C(=O)CC[C@]5(C)[C@H]4CC[C@@]23C)C[C@@H](O)[C@@H]1O (some centres not stated)
4. C[C@@H]([C@H](O)/C=C/C(C)(C)O)[C@@H]1CC[C@]2(C)C3=CC[C@H]4C(C)(C)C(=O)CC[C@]4(C)[C@H]3CC[C@@]12C
5. C[C@@H]([C@@H]1O[C@@H]1[C@@H]1OC1(C)C)[C@@H]1CC[C@]2(C)C3=CC[C@H]4C(C)(C)C(=O)CC[C@]4(C)[C@H]3CC[C@@]12C
6. CC(C)=CCC[C@@H](CO)[C@H]1CC[C@@]2(C)[C@@H]3CC[C@H]4C(C)(C)C(=O)CC[C@@]45C[C@@]35CC[C@]12C
7. CC(C)=C[C@H](O)C[C@@H](CO)[C@H]1CC[C@@]2(C)[C@@H]3CC[C@H]4C(C)(C)C(=O)CC[C@@]45C[C@@]35CC[C@]12C (mixture of isomers)
8. C[C@@H](C[C@@H](O)[C@H](O)C(C)(C)O)[C@@H]1CC[C@]2(C)C3=CC[C@H]4C(C)(C)[C@@H](O)CC[C@]4(C)[C@H]3CC[C@@]12C

> 10 µM
> 10 µM
> 10 µM
> 10 µM
> 10 µM
7.4 µM
> 10 µM
> 10 µM

Give one value of IC50 per listed compound.
1. C[C@@H](C[C@@H](O)[C@@H]1OC1(C)C)[C@@H]1CC[C@]2(C)C3=CC[C@H]4C(C)(C)C(=O)CC[C@]4(C)[C@H]3CC[C@@]12C
2. C=C[C@]1(C)C=C2C(=O)CC3C(C)(C)CCC[C@]3(C)C2CC1 (some centres not stated)
3. CC(C)=CC(=O)C[C@@H](C)[C@H]1CC[C@@]2(C)[C@@H]3CC[C@H]4C(C)(C)C(=O)CC[C@@]45C[C@@]35CC[C@]12C
4. C[C@H]([C@H]1OC(C)(C)[C@@H](O)[C@@H]1O)[C@@H]1CC[C@]2(C)C3=CC[C@H]4C(C)(C)C(=O)CC[C@]4(C)[C@H]3CC[C@@]12C (relative stereo)
5. CC(C)(O)[C@@H]1CC[C@H]([C@H]2CC[C@@]3(C)[C@@H]4CC[C@H]5C(C)(C)C(=O)CC[C@@]56C[C@@]46CC[C@]23C)CO1 (relative stereo)

7.1 µM
> 10 µM
> 10 µM
> 10 µM
> 10 µM
